Assay Comment: Biodistribution of the 99mTc(N) heterocomplexes in rats (organ uptake, heart accumulation, heart/lung and heart/liver ratios)
Format: in vivo, female Sprague-Dawley rats
Test Conditions: 120 min post injection
Measurement Kind: Biodistribution in rats: Lungs (% dose/g)

[
  {
    "Compound": "CCOCCN1CC[P](CCCOC)(CCCOC)[99Tc+]2(#[N])([S]C(N(CCOCC)CCOCC)=[S]2)[P](CCCOC)(CCCOC)CC1 [[^99mTc(N) (PNP5) (DBODC)]^+]",
    "Measurement Kind": "Biodistribution in rats: Lungs",
    "Measure Unit": "% dose/g",
    "Assay Value": 0.25
  },
  {
    "Compound": "CCOCCN1CC[P](CCCOC)(CCCOC)[99Tc+]2(#[N])([S]C(N(CCOCC)C(C)C)=[S]2)[P](CCCOC)(CCCOC)CC1 [[^99mTc(N) (PNP5) (ISOET)]^+]",
    "Measurement Kind": "Biodistribution in rats: Lungs",
    "Measure Unit": "% dose/g",
    "Assay Value": 0.22
  }
]

====

Assay Comment: Biodistribution of the 99mTc(N) heterocomplexes in rats (organ uptake, heart accumulation, heart/lung and heart/liver ratios)
Assay type: in vivo, female Sprague-Dawley rats
Test Conditions: 2 min post injection
Measurement Kind: Biodistribution in rats: Muscle (% ID/g)

[
  {
    "Compound": "CCOCCN(CCOCC)C1=[S][99Tc+]2(#[N])([S]1)[P](CCCOC)(CCCOC)CCN(CCOC)CC[P]2(CCCOC)CCCOC [[^99mTc(N) (PNP3) (DBODC)]^+]",
    "Assay Value": 0.23
  },
  {
    "Compound": "COCCC[P]1(CCCOC)CCN(CCOC)CC[P](CCCOC)(CCCOC)[99Tc+]12(#[N])[S]C(N(CCOC)CCOC)=[S]2 [[^99mTc(N) (PNP3) (DPODC)]^+]",
    "Assay Value": 0.25
  }
]

====

Assay Comment: Biodistribution of the 99mTc(N) heterocomplexes in rats (organ uptake, heart accumulation, heart/lung and heart/liver ratios)
Type: in vivo, female Sprague-Dawley rats
Test Conditions: 120 min post injection
Measurement Kind: Biodistribution in rats: Muscle (% dose/g)

[
  {
    "Compound": "CCOCCN1CC[P](CCCOC)(CCCOC)[99Tc+]2(#[N])([S]C(N(CCOCC)CCOCC)=[S]2)[P](CCCOC)(CCCOC)CC1 [[^99mTc(N) (PNP5) (DBODC)]^+]",
    "Measurement Kind": "Biodistribution in rats: Muscle",
    "Measure Unit": "% dose/g",
    "Assay Value": 0.23
  },
  {
    "Compound": "CCOCCN1CC[P](CCCOC)(CCCOC)[99Tc+]2(#[N])([S]C(N(CCOCC)C(C)C)=[S]2)[P](CCCOC)(CCCOC)CC1 [[^99mTc(N) (PNP5) (ISOET)]^+]",
    "Measurement Kind": "Biodistribution in rats: Muscle",
    "Measure Unit": "% dose/g",
    "Assay Value": 0.19
  }
]

====

Assay Comment: Biodistribution of the 99mTc(N) heterocomplexes in rats (organ uptake, heart accumulation, heart/lung and heart/liver ratios)
Type: in vivo, female Sprague-Dawley rats
Test Conditions: 120 min post injection
Procedure: The biodistribution was measured by using female Sprague-Dawley rats (SD rats) weighing 200 g to 250 g. Each of the ^99mTc(N) heterocomplexes purified in the manner described above was diluted with phosphate buffer (0.1 M, pH=7.4) to obtain a final solution having an ethanol content of 10%. […] The blood was withdrawn from the heart through a syringe and counted. […] The organs were excised from the rats, washed with physiological saline, weighed, and counted in a NaI well counter. […]
Measurement Kind: Biodistribution in rats: Brain (% dose/g)

[A] CCOCCN1CC[P](CCCOC)(CCCOC)[99Tc+]2(#[N])([S]C(N(CCOCC)C(C)C)=[S]2)[P](CCCOC)(CCCOC)CC1 [[^99mTc(N) (PNP5) (ISOET)]^+]
[B] CCOCCN1CC[P](CCCOC)(CCCOC)[99Tc+]2(#[N])([S]C(N(CCOCC)CCOCC)=[S]2)[P](CCCOC)(CCCOC)CC1 [[^99mTc(N) (PNP5) (DBODC)]^+]
Hi, I'm comparing A with B and wondering which one has the bigger number for Biodistribution in rats: Brain. Any idea? # answer = label of selected item
A
